tested on: CCRF-CEM; assay: Antitumor activity against human CCRF-CEM cells assessed as cell killing activity; format: functional, cell-based; details: read-out: pIC50 (converted)
So I've got a bunch of molecules here, and I need their IC50 values.
Write the answer as a number in nM, unit excluded.

Value lookup for IC50; key = CCOC(=O)/C=C/C=C/C=C/C=C/c1[nH]ccc1Cl
251

Value lookup for IC50; key = CCOC(=O)/C(C)=C/C=C/C=C/C=C/c1ccc[nH]1
79.4

Value lookup for IC50; key = COc1cc(\C(C)=C/C=C/C=C/C=C/c2[nH]ccc2Cl)oc(=O)c1C
1580

Value lookup for IC50; key = CCOC(=O)/C(C)=C/C=C/C=C/c1[nH]ccc1Cl
251

###

So I've got a bunch of molecules here, and I need their IC50 values.
tested on: THP-1; experiment: Antitumor activity against human THP-1 cells assessed as inhibition in cell killing activity; type: functional, cell-based
Write the answer as a number in µM, unit excluded.

Value lookup for IC50; key = CCOC(=O)/C=C/C=C/C=C/C=C/c1ccc[nH]1
0.77

Value lookup for IC50; key = CCOC(=O)/C(C)=C/C=C/C=C/C=C/c1[nH]ccc1Cl
0.15

Value lookup for IC50; key = COc1cc(/C=C/C=C/C=C/C=C/c2[nH]ccc2Cl)oc(=O)c1 [AUXARCONJUGATIN B]
1.3

Value lookup for IC50; key = CCOC(=O)/C(C)=C/C=C/C=C/C=C/c1ccc[nH]1
0.098
